test.details: Selectivity index, ratio for cytotoxicity against human HepG2 cells after 48 hrs to antiviral activity against HEV Kernow-C1 infected in gaussia luciferase transfected HepG2 cells pre-infected with virus for 4 hrs followed by compound addition and measured after 48 hrs post infection
Assay type: toxicity, cell-based
cond: read-out: Selectivity Index
measured.parameter: selectivity ratio at 48 h
Respond using a number only.

Example entries and their recorded answers appear below.
- molecule: "CONC(=O)[C@H]1[C@@H](O)[C@@]2(O)c3c(OC)cc(Br)cc3O[C@@]2(c2ccc(OC)cc2)[C@@H]1c1ccccc1 (racemic)"
  selectivity ratio at 48 h: 7.4
- molecule: "COC(=O)[C@H]1[C@@H](O)[C@@]2(O)c3c(OC)cc(OC)cc3O[C@@]2(c2ccc(Br)cc2)[C@@H]1c1ccccc1 (racemic)"
  selectivity ratio at 48 h: 3.2

Recorded result, COCOc1cc(F)c2c(c1)O[C@@]1(c3ccc(Br)cc3)[C@H](c3ccccc3)[C@@H](C(=O)OC)[C@@H](O)[C@@]21O (racemic) , selectivity ratio at 48 h: 2.1

Recorded result, COC(=O)[C@H]1[C@@H](O)[C@@]2(O)c3c(Br)cc(Br)cc3O[C@@]2(c2ccc(OC)cc2)[C@@H]1c1ccccc1 (racemic) , selectivity ratio at 48 h: 2.6

Recorded result, COC(=O)[C@H]1[C@@H](O)[C@@]2(O)c3c(OC)cc(Br)cc3O[C@@]2(c2ccc(OC)cc2)[C@@H]1c1ccccc1 (racemic) , selectivity ratio at 48 h: 11

====

test.details: Selectivity index, ratio for cytotoxicity against african green monkey Vero E6 cells after 48 hrs to antiviral activity against RVFV MP-12 infected in Vero E6 cells pre-infected with virus for 1 hr followed by compound addition and measured after 48 hrs post infection
Assay type: toxicity, cell-based, Vero C1008
cond: read-out: Selectivity Index
selectivity ratio at 48 h reference
Respond using a number only.

Example entries and their recorded answers appear below.
- compound: "CONC(=O)[C@H]1[C@@H](O)[C@@]2(O)c3c(Cl)cc(Br)cc3O[C@@]2(c2ccc(OC)cc2)[C@@H]1c1ccccc1 (racemic)"
  measured.parameter: "selectivity ratio at 48 h"
  measured: 1.7
- compound: "COC(=O)[C@H]1[C@@H](O)[C@@]2(O)c3c(Cl)cc(Cl)cc3O[C@@]2(c2ccc(OC)cc2)[C@@H]1c1ccccc1 (racemic)"
  measured.parameter: "selectivity ratio at 48 h"
  measured: 7

Please find the next compound below.
Recorded result, COC(=O)[C@H]1[C@@H](O)[C@@]2(O)c3c(OC)cc(Br)cc3O[C@@]2(c2ccc(OC)cc2)[C@@H]1c1ccccc1 (racemic) , selectivity ratio at 48 h: 23.1

====

CC50 at 24 h reference
test.details: Cytotoxicity against human HepG2 cells after 24 hrs by MTT assay
Type: toxicity, cell-based

Example entries and their recorded answers appear below.
- molecule: "CONC(=O)[C@H]1[C@@H](O)[C@@]2(O)c3c(OC)cc(OC)cc3O[C@@]2(c2ccc(F)cc2)[C@@H]1c1ccccc1 (racemic)"
  CC50 at 24 h: "666 nM"
- molecule: "CONC(=O)[C@H]1[C@@H](O)[C@@]2(O)c3c(Br)cc(Cl)cc3O[C@@]2(c2ccc(OC)cc2)[C@@H]1c1ccccc1 (racemic)"
  CC50 at 24 h: "464 nM"

Recorded result, CONC(=O)[C@H]1[C@@H](O)[C@@]2(O)c3c(OC)cc(OC)cc3O[C@@]2(c2ccc(OC)cc2)[C@@H]1c1ccccc1 (racemic) , CC50 at 24 h: 188 nM

Recorded result, CONC(=O)[C@H]1[C@@H](O)[C@@]2(O)c3c(OC)cc(OC)cc3O[C@@]2(c2ccc(Cl)cc2)[C@@H]1c1ccccc1 (racemic) , CC50 at 24 h: 529 nM

====

test.details: Selectivity index, ratio for cytotoxicity against human Huh-7 cells after 48 hrs to antiviral activity against Chikungunya virus ECSA infected in Huh-7 cells expressing GFP pre-infected with virus for 1 hr followed by compound addition and measured after 48 hrs post infection
Format: toxicity, cell-based
cond: read-out: Selectivity Index
selectivity ratio at 48 h reference

Example entries and their recorded answers appear below.
- molecule: "COC(=O)[C@H]1[C@@H](O)[C@@]2(O)c3c(OC)cc(Br)cc3O[C@@]2(c2ccc(OC)cc2)[C@@H]1c1ccccc1 (racemic)"
  selectivity ratio at 48 h: 428
- molecule: "CONC(=O)[C@H]1[C@@H](O)[C@@]2(O)c3c(Cl)cc(Br)cc3O[C@@]2(c2ccc(OC)cc2)[C@@H]1c1ccccc1 (racemic)"
  selectivity ratio at 48 h: 317

Please find the next molecule below.
Recorded result, COC(=O)[C@H]1[C@@H](O)[C@@]2(O)c3c(Cl)cc(Cl)cc3O[C@@]2(c2ccc(OC)cc2)[C@@H]1c1ccccc1 (racemic) , selectivity ratio at 48 h: 44.9

====

test.details: Selectivity index, ratio for cytotoxicity against human HepG2 cells after 24 hrs to antiviral activity against HEV Kernow-C1 infected in gaussia luciferase transfected HepG2 cells pre-infected with virus for 4 hrs followed by compound addition and measured after 24 hrs post infection
Assay type: toxicity, cell-based
cond: read-out: Selectivity Index
selectivity ratio at 24 h reference

- compound: "COc1cc(OC)c2c(c1)O[C@@]1(c3ccc(F)cc3)[C@H](c3ccccc3)[C@@H](C(=O)N(C)C)[C@@H](O)[C@@]21O (racemic)"
  measured: 4.4
- compound: "COCOc1cc(F)c2c(c1)O[C@@]1(c3ccc(Br)cc3)[C@H](c3ccccc3)[C@@H](C(=O)OC)[C@@H](O)[C@@]21O (racemic)"
  measured: 8.1
- compound: "COc1cc(OC)c2c(c1)O[C@@]1(c3ccc(Cl)cc3)[C@H](c3ccccc3)[C@@H](C(=O)N(C)C)[C@@H](O)[C@@]21O (racemic)"
  measured: 50.8
- compound: "COC(=O)[C@H]1[C@@H](O)[C@@]2(O)c3c(OC)cc(OC)cc3O[C@@]2(c2ccc(F)cc2)[C@@H]1c1ccccc1 (racemic)"
  measured: 10.9
- compound: "COC(=O)[C@H]1[C@@H](O)[C@@]2(O)c3c(Br)cc(Br)cc3O[C@@]2(c2ccc(OC)cc2)[C@@H]1c1ccccc1 (racemic)"
  measured: 22.1
- compound: "COc1ccc([C@@]23Oc4cc(OC)cc(OC)c4[C@]2(O)[C@H](O)[C@H](C(=O)N(C)C)[C@H]3c2ccccc2)cc1 (racemic) [ROCAGLAMIDE]"
  measured: 19.7

Recorded result, CONC(=O)[C@H]1[C@@H](O)[C@@]2(O)c3c(OC)cc(OC)cc3O[C@@]2(c2ccc(Cl)cc2)[C@@H]1c1ccccc1 (racemic) , selectivity ratio at 24 h: 198

Recorded result, COC(=O)[C@H]1[C@@H](O)[C@@]2(O)c3c(F)cc(F)cc3O[C@@]2(c2ccc(OC)cc2)[C@@H]1c1ccccc1 (racemic) , selectivity ratio at 24 h: 1

====

test.details: Selectivity index, ratio for cytotoxicity against human HepG2 cells after 24 hrs to antiviral activity against HEV Kernow-C1 infected in gaussia luciferase transfected HepG2 cells pre-infected with virus for 4 hrs followed by compound addition and measured after 24 hrs post infection
Assay type: toxicity, cell-based
cond: read-out: Selectivity Index
measured.parameter: selectivity ratio at 24 h
Respond using a number only.

Example entries and their recorded answers appear below.
- molecule: "COC(=O)[C@H]1[C@@H](O)[C@@]2(O)c3c(Cl)cc(Br)cc3O[C@@]2(c2ccc(OC)cc2)[C@@H]1c1ccccc1 (racemic)"
  measured: 122
- molecule: "COC(=O)[C@H]1[C@@H](O)[C@@]2(O)c3c(OC)cc(Br)cc3O[C@@]2(c2ccc(OC)cc2)[C@@H]1c1ccccc1 (racemic)"
  measured: 160
- molecule: "COC(=O)[C@H]1[C@@H](O)[C@@]2(O)c3c(OC)cc(OC)cc3O[C@@]2(c2ccc(Br)cc2)[C@@H]1c1ccccc1 (racemic)"
  measured: 74.1

Recorded result, COCOc1cc(F)c2c(c1)O[C@@]1(c3ccc(OC)cc3)[C@H](c3ccccc3)[C@@H](C(=O)OC)[C@@H](O)[C@@]21O (racemic) , selectivity ratio at 24 h: 4.6

====

test.details: Cytotoxicity against human HepG2 cells after 48 hrs by MTT assay
Format: toxicity, cell-based
CC50 at 48 h reference
Reply with just the number (in nM).

Recorded result, CONC(=O)[C@H]1[C@@H](O)[C@@]2(O)c3c(OC)cc(OC)cc3O[C@@]2(c2ccc(OC)cc2)[C@@H]1c1ccccc1 (racemic) , CC50 at 48 h: 14.3

Recorded result, CONC(=O)[C@H]1[C@@H](O)[C@@]2(O)c3c(Br)cc(Cl)cc3O[C@@]2(c2ccc(OC)cc2)[C@@H]1c1ccccc1 (racemic) , CC50 at 48 h: 26.3

Recorded result, CONC(=O)[C@H]1[C@@H](O)[C@@]2(O)c3c(OC)cc(OC)cc3O[C@@]2(c2ccc(F)cc2)[C@@H]1c1ccccc1 (racemic) , CC50 at 48 h: 143

Recorded result, CONC(=O)[C@H]1[C@@H](O)[C@@]2(O)c3c(OC)cc(OC)cc3O[C@@]2(c2ccc(Cl)cc2)[C@@H]1c1ccccc1 (racemic) , CC50 at 48 h: 10
